Source of measurements: paper PMC5540273

molecular target: CSNK2A2 (Homo sapiens); experiment: KINOMEscan competition binding; conditions: read-out: %Inh CSNK2A2

| compound | inhibition at 1 µM [%] |
| --- | --- |
| Cn1cc(-c2cnc(N)c3c(-c4ccc5c(c4)CCN5C(=O)Cc4ccccc4)csc23)cn1 [UNC10225012A] | 1 |
| COc1cccc(OC)c1C(=O)Nc1cccc(-c2nn3ccccc3c2-c2ccnc(Nc3cccc(F)c3)n2)c1 [UNC10225310A] | 23 |
| CS(=O)(=O)Cc1ccc(Nc2nccc(-c3c(-c4cccc(NC(=O)C5CCCCC5)c4)nn4ncccc34)n2)cc1 [UNC10225159A] | 1 |
| O=c1cc(N2CCOCC2)nc2n(Cc3cccc(Cl)c3Cl)c(C3CC3)nn12 [UNC10225469A] | 0 |
| Cc1ccc(NC(=O)Nc2cccc(C(F)(F)F)c2)cc1 [UNC10225187A] | 0 |

* * *

Target: UniProt:Q09013
Sequence (Q09013 1-629): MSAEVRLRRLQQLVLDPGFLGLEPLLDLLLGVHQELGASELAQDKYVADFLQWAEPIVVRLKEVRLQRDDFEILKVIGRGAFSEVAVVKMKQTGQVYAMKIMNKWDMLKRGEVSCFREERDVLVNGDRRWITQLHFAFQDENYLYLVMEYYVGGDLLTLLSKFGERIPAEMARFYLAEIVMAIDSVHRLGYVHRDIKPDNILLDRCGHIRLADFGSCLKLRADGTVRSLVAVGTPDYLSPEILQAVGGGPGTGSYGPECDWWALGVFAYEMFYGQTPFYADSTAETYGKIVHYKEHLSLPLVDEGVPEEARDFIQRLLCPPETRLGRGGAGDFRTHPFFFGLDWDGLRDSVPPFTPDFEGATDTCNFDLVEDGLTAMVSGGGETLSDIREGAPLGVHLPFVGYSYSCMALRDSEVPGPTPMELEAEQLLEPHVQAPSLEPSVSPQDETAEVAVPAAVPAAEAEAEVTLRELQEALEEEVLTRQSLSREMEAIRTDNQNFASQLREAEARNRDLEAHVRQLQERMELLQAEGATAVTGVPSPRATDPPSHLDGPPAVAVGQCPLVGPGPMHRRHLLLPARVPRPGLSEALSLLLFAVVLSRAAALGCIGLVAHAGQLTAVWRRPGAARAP
Experiment: KINOMEscan competition binding
Conditions: read-out: %Inh DMPK
Documented inhibition at 1 µM across a set of molecules
readout_kind: inhibition at 1 µM (%)

| molecule | target_under_test | readout_kind | value_observed |
| --- | --- | --- | --- |
| Cc1ccc(NC(=O)Nc2cccc(C(F)(F)F)c2)cc1 [UNC10225187A] | UniProt:Q09013 | inhibition at 1 µM | 0 |
| COc1cccc(OC)c1C(=O)Nc1cccc(-c2nn3ccccc3c2-c2ccnc(Nc3cccc(F)c3)n2)c1 [UNC10225310A] | UniProt:Q09013 | inhibition at 1 µM | 2 |
| CS(=O)(=O)Cc1ccc(Nc2nccc(-c3c(-c4cccc(NC(=O)C5CCCCC5)c4)nn4ncccc34)n2)cc1 [UNC10225159A] | UniProt:Q09013 | inhibition at 1 µM | 0 |
| Cn1cc(-c2cnc(N)c3c(-c4ccc5c(c4)CCN5C(=O)Cc4ccccc4)csc23)cn1 [UNC10225012A] | UniProt:Q09013 | inhibition at 1 µM | 0 |
| O=c1cc(N2CCOCC2)nc2n(Cc3cccc(Cl)c3Cl)c(C3CC3)nn12 [UNC10225469A] | UniProt:Q09013 | inhibition at 1 µM | 0 |

* * *

target: CSNK1D (Homo sapiens, UniProt P48730); experiment: KINOMEscan competition binding; conditions: read-out: %Inh CSNK1D

| compound | inhibition at 1 µM, % |
| --- | --- |
| O=c1cc(N2CCOCC2)nc2n(Cc3cccc(Cl)c3Cl)c(C3CC3)nn12 [UNC10225469A] | 7 |
| Cc1ccc(NC(=O)Nc2cccc(C(F)(F)F)c2)cc1 [UNC10225187A] | 0 |
| CS(=O)(=O)Cc1ccc(Nc2nccc(-c3c(-c4cccc(NC(=O)C5CCCCC5)c4)nn4ncccc34)n2)cc1 [UNC10225159A] | 0 |
| COc1cccc(OC)c1C(=O)Nc1cccc(-c2nn3ccccc3c2-c2ccnc(Nc3cccc(F)c3)n2)c1 [UNC10225310A] | 9 |
| Cn1cc(-c2cnc(N)c3c(-c4ccc5c(c4)CCN5C(=O)Cc4ccccc4)csc23)cn1 [UNC10225012A] | 0 |

* * *

Below: a set of entries, each annotated with reported inhibition at 1 µM.
molecular target: FAK (Homo sapiens); experiment: KINOMEscan competition binding; conditions: read-out: %Inh FAK
readout_kind: inhibition at 1 µM (%)

| compound | units_of_measure | value_observed |
| --- | --- | --- |
| COc1cccc(OC)c1C(=O)Nc1cccc(-c2nn3ccccc3c2-c2ccnc(Nc3cccc(F)c3)n2)c1 [UNC10225310A] | % | 1 |
| O=c1cc(N2CCOCC2)nc2n(Cc3cccc(Cl)c3Cl)c(C3CC3)nn12 [UNC10225469A] | % | 0 |
| CS(=O)(=O)Cc1ccc(Nc2nccc(-c3c(-c4cccc(NC(=O)C5CCCCC5)c4)nn4ncccc34)n2)cc1 [UNC10225159A] | % | 0 |
| Cn1cc(-c2cnc(N)c3c(-c4ccc5c(c4)CCN5C(=O)Cc4ccccc4)csc23)cn1 [UNC10225012A] | % | 7 |
| Cc1ccc(NC(=O)Nc2cccc(C(F)(F)F)c2)cc1 [UNC10225187A] | % | 1 |

* * *

biological target: FLT1 (Homo sapiens, UniProt P17948); experiment: KINOMEscan competition binding; settings: read-out: %Inh FLT1
Answer F if inhibition at 1 µM is under 30%, and T if it is 30% or more.

| molecule | group_label |
| --- | --- |
| CS(=O)(=O)Cc1ccc(Nc2nccc(-c3c(-c4cccc(NC(=O)C5CCCCC5)c4)nn4ncccc34)n2)cc1 [UNC10225159A] | T |
| Cc1ccc(NC(=O)Nc2cccc(C(F)(F)F)c2)cc1 [UNC10225187A] | F |
| O=c1cc(N2CCOCC2)nc2n(Cc3cccc(Cl)c3Cl)c(C3CC3)nn12 [UNC10225469A] | F |
| Cn1cc(-c2cnc(N)c3c(-c4ccc5c(c4)CCN5C(=O)Cc4ccccc4)csc23)cn1 [UNC10225012A] | T |
| COc1cccc(OC)c1C(=O)Nc1cccc(-c2nn3ccccc3c2-c2ccnc(Nc3cccc(F)c3)n2)c1 [UNC10225310A] | T |

* * *

Target: HUNK (Homo sapiens)
Sequence (P57058 1-714): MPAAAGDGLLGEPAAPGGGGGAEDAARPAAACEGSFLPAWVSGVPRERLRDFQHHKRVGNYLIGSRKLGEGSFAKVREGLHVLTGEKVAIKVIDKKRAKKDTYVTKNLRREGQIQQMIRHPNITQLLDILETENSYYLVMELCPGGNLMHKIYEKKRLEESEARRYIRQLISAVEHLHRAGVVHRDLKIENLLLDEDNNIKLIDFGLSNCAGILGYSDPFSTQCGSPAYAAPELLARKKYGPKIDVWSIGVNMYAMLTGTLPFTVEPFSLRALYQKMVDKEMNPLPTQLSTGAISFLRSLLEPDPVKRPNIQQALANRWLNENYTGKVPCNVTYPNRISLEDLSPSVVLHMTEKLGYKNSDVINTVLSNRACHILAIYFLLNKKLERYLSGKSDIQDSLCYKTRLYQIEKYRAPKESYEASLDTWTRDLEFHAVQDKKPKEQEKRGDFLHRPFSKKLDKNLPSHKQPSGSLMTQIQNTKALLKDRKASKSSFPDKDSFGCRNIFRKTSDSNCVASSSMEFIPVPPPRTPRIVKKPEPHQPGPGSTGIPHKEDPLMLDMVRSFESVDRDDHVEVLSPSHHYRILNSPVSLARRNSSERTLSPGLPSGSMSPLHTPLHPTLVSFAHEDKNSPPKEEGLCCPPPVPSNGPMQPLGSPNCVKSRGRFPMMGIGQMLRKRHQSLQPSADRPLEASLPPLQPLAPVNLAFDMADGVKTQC
Experiment: KINOMEscan competition binding
Settings: read-out: %Inh HUNK
Each entry below carries its recorded inhibition at 1 µM.
readout_kind: inhibition at 1 µM (%)

| compound | target_under_test | value_observed |
| --- | --- | --- |
| Cn1cc(-c2cnc(N)c3c(-c4ccc5c(c4)CCN5C(=O)Cc4ccccc4)csc23)cn1 [UNC10225012A] | HUNK (Homo sapiens) | 0 |
| COc1cccc(OC)c1C(=O)Nc1cccc(-c2nn3ccccc3c2-c2ccnc(Nc3cccc(F)c3)n2)c1 [UNC10225310A] | HUNK (Homo sapiens) | 15 |
| Cc1ccc(NC(=O)Nc2cccc(C(F)(F)F)c2)cc1 [UNC10225187A] | HUNK (Homo sapiens) | 0 |
| CS(=O)(=O)Cc1ccc(Nc2nccc(-c3c(-c4cccc(NC(=O)C5CCCCC5)c4)nn4ncccc34)n2)cc1 [UNC10225159A] | HUNK (Homo sapiens) | 7 |
| O=c1cc(N2CCOCC2)nc2n(Cc3cccc(Cl)c3Cl)c(C3CC3)nn12 [UNC10225469A] | HUNK (Homo sapiens) | 0 |
